- Test system: smallflower umbrella sedge (Cyperus difformis)
- PROTOCOL TEXT: Test E flooded paddy water application
- Format: in vivo
- TEST SETTINGS: 125 g ai/ha; Flood; 21 days; scale 0 to 100 (0 no effect, 100 complete control)
- Source text: Three plastic pots (ca. 16-cm diameter) per rate were partially filled with sterilized Tama silt loam soil comprising a 35:50:15 ratio of sand, silt and clay and 2.6% organic matter. Separate plantings for each of the three pots were as follows. Seeds from the U.S. of ducksalad (Heteranthera limosa), smallflower umbrella sedge (Cyperus difformis) and purple redstem (Ammannia coccinea), were planted into one 16-cm pot for each rate. […]
Give measured Sedge, Umbrella plant response rating for each item. Keep answers brief.
Give your answer as a number; write no unit.

Can you look up the measured Sedge, Umbrella plant response rating of CCOC(=O)c1nc(-c2ccc(F)cc2)nc(N)c1Br [Compound 63] for me?
75

Can you look up the measured Sedge, Umbrella plant response rating of CCOC(=O)c1nc(-c2ccc(C)c(C)c2)nc(N)c1Br [Compound 70] for me?
0

Can you look up the measured Sedge, Umbrella plant response rating of CNc1nc(-c2ccc(Cl)cc2)nc(C(=O)OC)c1Cl [Compound 111] for me?
0
